molecular target: T1, human apical domain of CD71 (human, UniProt P02786 189-383, limits assumed); test: primary ELISA; signal over HSA control
T1 construct: domain: apical domain
T1 sequence (P02786 189-383 limits assumed): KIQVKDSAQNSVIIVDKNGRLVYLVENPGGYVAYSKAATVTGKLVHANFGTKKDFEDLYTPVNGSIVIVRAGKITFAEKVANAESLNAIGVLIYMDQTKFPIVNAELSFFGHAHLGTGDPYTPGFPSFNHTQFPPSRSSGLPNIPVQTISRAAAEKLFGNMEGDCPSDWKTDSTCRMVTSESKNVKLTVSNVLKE
recorded.metric: Apical domain:HSA (ratio)
Give the value, in units of ratio, as a plain number.

{"columns": ["binder", "unit.symbol", "reported"],
 "data": [
  ["CD71-binding FN3 domain SEQ ID NO 392 (designed binder) MLPAPKNLVVSRVTEDSARLSWTAPDAAFDSFFIGYLEPQPPGEAIHLGVPGSERSYDLTGLKPGTEYNVTIQGVKGGFPSLPLVATFTT", "ratio", 194]
]}

Now look at this entry.
// query Fill in the blank: the reported Apical domain:HSA of CD71-binding FN3 domain SEQ ID NO 388 (designed binder) MLPAPKNLVVSRVTEDSARLSWTAPDAAFDSFEIAYFEYCLNGEAIVLTVPGSERSYDLTGLKPGTEYWVQIGGVKGGTWSWPLSAIFTT is ____.
// result 135
